Every entry's value here was drawn from patent US9938269B2.

Here's what we have: IC50 numbers for PDE10A (human) (Homo sapiens, UniProt Q9Y233).
Where a name gives a salt, the structure may show the parent alone.
readout: IC50

O=C1c2c(N3CCOCC3)ccnc2CN1CCc1cn2cc(F)ccc2n1 [compound 493, trifluoroacetate] = < 100 nM
O=C1c2c(-c3ccncc3)ccnc2CN1CCc1nc2ccc(F)cc2s1 = < 100 nM
CN(C)c1cccc(-c2cccc3c2C(=O)N(CCc2ccc4ccccc4n2)C3)c1 = 200 to 500 nM
O=C1c2c(N3CCOCC3)ccnc2CN1CCc1cn2ccccc2n1 [Example 270, di-trifluoroacetate] = < 100 nM
O=C1c2c(cccc2-c2ccc3nn[nH]c3c2)CN1CCc1ccc2ccccc2n1 [Example 10, trifluoroacetate] = < 100 nM
O=C1c2c(N3CCC4(COC4)C3)ccnc2CN1CCc1nc2ccccc2s1 = < 100 nM
O=C1c2c(cccc2-c2ccc(F)cc2F)CN1CCc1ccc2ccccc2n1 = 100 to 200 nM
COc1ccc(-c2ccc(F)c3c2C(=O)N(CCc2ccc4ccccc4n2)C3)cc1 = 100 to 200 nM
